B1: AnkB_AI-c (aa 828–852) [human] / AnkB_MBD (AnkB ANK repeats only, aa 28–827) [human] (parent complex)
chain 1: TEKHKLNVPETMTEVLDVSDEEGDD
chain 2: KSDSNASFLRAARAGNLDKVVEYLKGGIDINTCNQNGLNALHLAAKEGHVGLVQELLGRGSSVDSATKKGNTALHIASLAGQAEVVKVLVKEGANINAQSQNGFTPLYMAAQENHIDVVKYLLENGANQSTATEDGFTPLAVALQQGHNQAVAILLENDTKGKVRLPALHIAARKDDTKSAALLLQNDHNADVQSKMMVNRTTESGFTPLHIAAHYGNVNVATLLLNRGAAVDFTARNGITPLHVASKRGNTNMVKLLLDRGGQIDAKTRDGLTPLHCAARSGHDQVVELLLERGAPLLARTKNGLSPLHMAAQGDHVECVKHLLQHKAPVDDVTLDYLTALHVAAHCGHYRVTKLLLDKRANPNARALNGFTPLHIACKKNRIKVMELLVKYGASIQAITESGLTPIHVAAFMGHLNIVLLLLQNGASPDVTNIRGETALHMAARAGQVEVVRCLLRNGALVDARAREEQTPLHIASRLGKTEIVQLLLQHMAHPDAATTNGYTPLHISAREGQVDVASVLLEAGAAHSLATKKGFTPLHVAAKYGSLDVAKLLLQRRAAADSAGKNGLTPLHVAAHYDNQKVALLLLEKGASPHATAKNGYTPLHIAAKKNQMQIASTLLNYGAETNIVTKQGVTPLHLASQEGHTDMVTLLLDKGANIHMSTKSGLTSLHLAAQEDKVNVADILTKHGADQDAHTKLGYTPLIVACHYGNVKMVNFLLKQGANVNAKTKNGYTPLHQAAQQGHTHIINVLLQHGAKPNATTANGNTALAIAKRLGYISVVDTLKVVTEEVTTTTTTI

# Variants of: B1
# Experiment description: ITC; parent: 360 nM
Endpoint label: pKd
Give bare numbers, as −log10 of the molar value.

Data point: chain 2 N568A ; pKd = 5.62
